tested on: ACHN renal; assay: NCI tumour cell line growth inhibition, 48 h
Recorded TGI values for a group of compounds are listed next.

Would you please look over these solved cases?
* COc1cc2nc(N3CCC[C@H](NC4=CC(=O)c5ccccc5C4=O)C3)nc(N)c2cc1OC | 3.47 µM
* CCCCC#Cc1c(I)n(C2OC(CO[Si](C)(C)C(C)(C)C)C3OC(C)(C)OC32)c(=O)n(C(=O)c2ccccc2)c1=O (centres undefined) | > 100 µM
* CN(C)C=N[C@@H](C(=O)O)c1ccccc1 | > 100 µM
* Oc1ccc(Cl)cc1-c1cc(-c2ccccc2)nc(=S)[nH]1 | > 100 µM
* Cc1cn(C2CC(COCc3ccccc3)N(CCO[Si](C)(C)C(C)(C)C)O2)c(=O)[nH]c1=O (centres undefined) | 28.9 µM

Please look at this compound and report its TGI: O=C1C(Cl)=C(Cl)C(=O)N1c1ccc(Cl)c(Cl)c1Cl
> 100 µM

Please look at this compound and report its TGI: C=C(Br)C[N+]12CN3CN(CN(C3)C1)C2
> 100 µM

Please look at this compound and report its TGI: [N-]=[N+]=Nc1nc2ccccc2c(N=[N+]=[N-])c1Cl
> 100 µM

Please look at this compound and report its TGI: CC(C)[P+](c1ccccc1)(c1ccccc1)c1ccccc1
> 100 µM

---

Recorded GI50 values for a group of compounds are listed next.
test system: IGROV1 ovarian; test: NCI tumour cell line growth inhibition, 48 h

• CC(C)(C)c1ccc(C2CC(=O)C3=C(C2)Nc2ccccc2N(C(=O)c2ccccc2Cl)C3c2ccc(F)cc2)cc1 (stereo unspecified) = > 100 µM
• C=C(C(=O)OC)[C@@H]1CC2OC1C(=O)C(C)CCC/C(C)=C/CC[C@@]2(C)O (stereo partly specified) = 11.3 µM
• O=C(O)Cn1c2c(c3c1-c1ccccc1C3=O)C(=O)CCC2 = > 100 µM
• Fc1ccc2c(c1)C1=C(CCC2)C(c2ccc(Cl)cc2)NC(=S)N1 (stereo unspecified) = 10.3 µM
• COc1cc(Cc2c(C)cc(OC)c3[nH]c4ccccc4c23)cc2c1[nH]c1ccccc12 = 9.03 µM

Please look at this compound and report its GI50: N#C/C(=C/N1CCN(C(=O)c2ccco2)C1=S)C(=O)Nc1ccc(Cl)cc1
25.3 µM

---

test system: M14 melanoma; test: NCI tumour cell line growth inhibition, 48 h
Recorded TGI values for a group of compounds are listed next.

Would you please look over these solved cases?
• O=C1C=C(N2CCN(c3ncccn3)CC2)C(=O)c2c(O)ccc(O)c21 = > 100 µM
• CN1CCN=C1c1nnn(-c2ccc([N+](=O)[O-])cc2)c1-c1ccccc1 = > 100 µM

Please look at this compound and report its TGI: CCOC(=O)C1CCC(=O)N1C(=O)c1cccc(Cl)c1 (stereo not drawn)
> 100 µM

---

tested on: BT-549 breast; experiment: NCI tumour cell line growth inhibition, 48 h; in the data active = GI50 below about 0.43 µM; inactive = the rest
A correct response names exactly one class from label 1 = active, label 0 = inactive

Recorded results for 3 compounds are shown here.
• CCN1CCN(c2cc(C(=O)Nc3cccc(Nc4ccc5c(OC)cccc5n4)c3)cc(C(F)(F)F)c2)CC1 = label 0
• CC(C)C[C@H](NC(=O)Cn1cccc(CNC(=O)c2ccccc2)c1=O)B(O)O = label 1
• CC1CCCC(C#N)(NOC2=NCCN2)C1 (centres undefined) = label 0

Test call, this compound: N#C/C(=C/N1CCN(C(=O)c2ccco2)C1=S)C(=O)Nc1ccc(Cl)cc1
label 0

Test call, this compound: O=C(O)COc1ccc(OCC(=O)O)cc1
label 0

Test call, this compound: NC1=NC(SCc2ccccc2CCl)c2ncn(Cc3ccccc3CCl)c2N1 (centres undefined)
label 0

Test call, this compound: O=C1CS/C(=N/S(=O)(=O)c2ccc(N3N=C4c5ccccc5CC4C3c3cccs3)cc2)N1C(=O)c1ccccc1 (centres undefined)
label 0

Test call, this compound: COc1ccc(C2NN=C3c4ccccc4CCC32)cc1 (centres undefined)
label 0

Test call, this compound: CCOC(=O)c1c(-c2ccccc2)[n+](=O)c2cc(F)c(F)cc2n1[O-]
label 0
